Can you tell me MBC for the items I'm about to list?
test system: Mycobacterium tuberculosis; assay: Bactericidal activity against Mycobacterium tuberculosis H37Ra assessed as bacterial growth inhibition incubated for 3 to 4 weeks by broth microdilution method; type: functional; settings: Mycobacterium tuberculosis, H37Ra; time 3-4 weeks; read-out: MBC
Answer format: numeric, µM implied, no suffix.

Reported MBC for `O=c1c(NCc2ccccn2)c(-c2ccc(N3CCCCC3)cc2)c1=O` : what is it?
1.2

Reported MBC for `O=c1c(NCc2ccccn2)c(-c2ccc(N3CCNCC3)cc2)c1=O` : what is it?
64

Reported MBC for `COc1nc2ccc(Br)cc2cc1[C@@H](c1ccccc1)[C@@](O)(CCN(C)C)c1cccc2ccccc12` : what is it?
0.03

Reported MBC for `COc1ccc(-c2c(NCc3ccccn3)c(=O)c2=O)cc1` : what is it?
8

Reported MBC for `O=c1c(NCc2ccccn2)c(-c2ccc(N3CCSCC3)cc2)c1=O` : what is it?
1.2

Cited source for all entries: ChEMBL document CHEMBL5390255
